- systemUnderTest: HLA-A*02:01 (Homo sapiens, UniProt P04439, D140Y/D185E/D98H/E176V/E277Q/G131W/G231S/I119V/I121R/I166T/I218V/L300P/L318F/N151K/N90K/P208A/P217A/Q86G/Q94H/R138H/R169H/T345S)
- testSummary: MHC binding assay (UV-ligand exchange, beta2m ELISA, peptide exchange yield)
- assaySetup: binding of HLA-class I restricted peptides to HLA-A*02:01, ranged by peptide exchange yield (UV-ligand exchange, β2m ELISA)
assayMetric: Peptide exchange

Some substances with known Peptide exchange results, for comparison:
Input: Peptide exchange lookup needed for 543 (GLLPTPITQQASL; listed as Homo sapiens) [compound 543] , thanks.
Output: ″+++″ (≥50% = +++)

Input: Another substance to check: 2 (SLLEADPFL; listed as Homo sapiens) [compound 2]
Output: ″+++″ (≥50% = +++)

Input: Another substance to check: 280 (VLPDPEVLEAV; listed as Homo sapiens) [compound 280]
Output: ″+++″ (≥50% = +++)

Input: Another substance to check: 409 (LLDAMNYHL; listed as Homo sapiens) [compound 409]
Output: ″++″ (≥20% = ++)

Input: Another substance to check: 284 (ILLSQTTGV; listed as Homo sapiens) [compound 284]
Output: ″+++″ (≥50% = +++)

***
Input: Peptide exchange lookup needed for 393 (GLLDTQTSQVLTA; listed as Homo sapiens) [compound 393] , thanks.
Output: ″++″ (≥20% = ++)

Input: Another substance to check: 463 (SLVESHLSDQLTL; listed as Homo sapiens) [compound 463]
Output: ″+++″ (≥50% = +++)

Input: Another substance to check: 22 (IMEENPGIFAV; listed as Homo sapiens) [compound 22]
Output: ″+++″ (≥50% = +++)
